# Test system: SK-OV-3 ovarian
# assay_details: NCI-60 one-dose screen, 48 h (100 = growth as untreated, 0 = no growth, -100 = all killed)
# experimental_parameters: 10 µM unless noted
Compounds without any hit were thinned out: in the full panel of roughly 83,000, 20% have a hit. Activity calls are given as the source filed them. How the source made its calls: active means growth percent below 10; inactive means the rest.
measured_endpoint: growth

Guide cases for growth, answers given:
Exercise: Could you share which growth value was measured for COc1ccc2[nH]c(O)c(N=NC(=O)COc3ccc(NC(=O)Nc4ccccc4)cc3)c2c1 ?
Solution: 42.3% (inactive)

Exercise: Could you share which growth value was measured for COc1ccccc1C(=O)NN1C(=O)/C(=C/C2=Cc3ccccc3OC2)SC1=S ?
Solution: 94.5% (inactive)

Next:
Exercise: Could you share which growth value was measured for CC(C)c1sc(NC(=O)c2cc(NC(=O)c3cc(NC(=O)c4cscn4)cn3C)cn2C)nc1C(=O)NCCCN(C)C ?
Solution: -14.5% (active)

Exercise: Could you share which growth value was measured for COc1ccc(C(=O)/C=C/c2cccnc2)cc1S(N)(=O)=O ?
Solution: 88.1% (inactive)

Exercise: Could you share which growth value was measured for O=C1NC(=O)/C(=C/c2ccccc2OCc2cc3ccccc3nc2Cl)S1 ?
Solution: 81.7% (inactive)

----------
# Test system: OVCAR-5 ovarian
# assay_details: NCI-60 one-dose screen, 48 h (100 = growth as untreated, 0 = no growth, -100 = all killed)
# experimental_parameters: 10 µM unless noted
Compounds without any hit were thinned out: in the full panel of roughly 83,000, 20% have a hit.
measured_endpoint: growth (%)
Quick note: give the figure in %, leave out the unit.

Exercise: Could you share which growth value was measured for CNS(=O)(=O)c1ccc(Nc2ccc(C(F)(F)F)cc2)c(-c2cn(C)cn2)c1 ?
Solution: 68.3

Exercise: Could you share which growth value was measured for Cc1cc(C)n(-c2ccc3nnc(-c4ccccc4)n3n2)n1 ?
Solution: 128

Next:
Exercise: Could you share which growth value was measured for COc1ccc(C(=O)/C=C/c2cccc(Cl)c2)cc1S(N)(=O)=O ?
Solution: -17.8

Exercise: Could you share which growth value was measured for O=C(/C=C/Nc1ccc(Cl)cc1)c1ccc2c(c1)Nc1ccccc1S2 ?
Solution: 83.4

----------
Item-by-item account of growth
# Tested on: IGROV1 ovarian
# assay_details: NCI-60 one-dose screen, 48 h (100 = growth as untreated, 0 = no growth, -100 = all killed)
# experimental_parameters: 10 µM unless noted
The panel holds about 83,000 compounds, 20% with a hit somewhere; the sample as a whole holds those more often.
Quick note: give the figure in %, leave out the unit.

Exercise: Could you share which growth value was measured for C=C1CCC2C3(C)COC(c4cc(F)cc(F)c4)OC3CCC2(C)C1CC(O)C1=CCOC1=O (stereo not drawn) ?
Solution: 60.1

Exercise: Could you share which growth value was measured for Cc1nc(Nc2ccccn2)sc1C(=O)CC(SCC(=O)Nc1ccc(Cl)cc1)c1ccccc1F (stereo not drawn) ?
Solution: 20.4

Next:
Exercise: Could you share which growth value was measured for CCOC(=O)C1=C(N)N(c2ccccc2)C2=C(C(=O)CC(C)(C)C2)C1c1ccc(Cl)cc1Cl (stereo not drawn) ?
Solution: 59.4

----------
# System: HT29 colon
# assay_details: NCI-60 one-dose screen, 48 h
# experimental_parameters: 10 µM unless noted
# Protocol: Growth inhibition of the HT29 human tumor cell line is measured as a screen for anti-cancer activity. Cells are grown in 96 well plates and exposed to the test compound for 48 hours. Compounds are tested at a single concentration, which is 10^-5 M for most compounds. The reported endpoint is percent growth (GI% or GIPRCNT), where numbers from 0 - 100% represent growth inhibition, and numbers from -100% - 0 represent cell death. For example, a value of 40 represents 60% growth inhibition. […]
The panel holds about 83,000 compounds, 20% with a hit somewhere; the sample as a whole holds those more often. The source made the active and inactive calls. How the source made its calls: active means growth percent below 10; inactive means the rest.
Parameter call: string, one of active, inactive

Please review the following examples before continuing.
Exercise: Could you please tell me the result logged for O=C(CCN1C(=O)/C(=C/c2ccc(F)cc2)SC1=S)N1CCOCC1 in this assay?
Solution: inactive

Exercise: Could you please tell me the result logged for O=C(CN1C(=O)/C(=C/c2ccccc2F)SC1=S)N1CCOCC1 in this assay?
Solution: inactive

Exercise: Could you please tell me the result logged for COc1ccc2[nH]cc(-c3cc(N)n4nc(-c5cn(C)c6ccccc56)cc4n3)c2c1 in this assay?
Solution: active

Exercise: Could you please tell me the result logged for CC1(C)CC[C@]2(C(=O)Nc3ccccc3)CC[C@]3(C)C(=CCC4[C@@]5(C)C[C@@H](O)[C@H](O)[C@@](C)(CO)C5CC[C@]43C)C2C1 (stereo not given in full) in this assay?
Solution: inactive

Exercise: Could you please tell me the result logged for CCN(CC)c1ccnc(CNCCSC(c2ccccc2)(c2ccccc2)c2ccc(C)cc2)c1 in this assay?
Solution: active

Next:
Exercise: Could you please tell me the result logged for COc1ccc2c(c1)c(-c1cc3nc(-c4cn(C)c5ncccc45)cc(N)n3n1)cn2C in this assay?
Solution: active

Exercise: Could you please tell me the result logged for C=C1CC[C@@H]2[C@]3(C)COC(c4cn[nH]c4-c4cccc(Cl)c4)O[C@@H]3CC[C@@]2(C)[C@@H]1C/C=C1/C(=O)OCC1O (stereo not given in full) in this assay?
Solution: active

Exercise: Could you please tell me the result logged for COc1ccc(C2(SCCNCc3cc(N(C)C)ccn3)c3ccccc3C=Cc3ccccc32)cc1 in this assay?
Solution: active

Exercise: Could you please tell me the result logged for O=C(N/N=C/c1ccc(-c2ccc(O)cc2)o1)c1[nH]c2ccc(Br)cc2c1-c1ccccc1 in this assay?
Solution: active

Exercise: Could you please tell me the result logged for Cc1sc(C(NC(=O)OCCn2c([N+](=O)[O-])cnc2C)C(F)(F)Cl)nc1-c1ccc(OC(F)(F)F)cc1 (stereo not given) in this assay?
Solution: active

Exercise: Could you please tell me the result logged for CC(=O)OC[C@@]1(C)C2CC[C@]3(C)C(CC=C4C5CC(C)(C)CC[C@]5(C(=O)Nc5ccc(F)cc5)CC[C@]43C)[C@@]2(C)C[C@@H](OC(C)=O)[C@@H]1OC(C)=O (stereo not given in full) in this assay?
Solution: inactive

Exercise: Could you please tell me the result logged for O=C1CCCc2cc(OCC(=O)N3CCCCC3)ccc2N1 in this assay?
Solution: inactive

Exercise: Could you please tell me the result logged for COc1ccc2[nH]c(O)c(N=NC(=O)COc3ccc(NC(=O)Nc4ccccc4)cc3)c2c1 in this assay?
Solution: inactive

----------
Item-by-item account of growth
# System: IGROV1 ovarian
# assay_details: NCI-60 one-dose screen, 48 h (100 = growth as untreated, 0 = no growth, -100 = all killed)
# experimental_parameters: 10 µM unless noted
This is part of a sample that, as a whole, favours compounds with a hit. Of some 83,000 tested, about 20% had one in any assay.
Quick note: give the figure in %, leave out the unit.

Exercise: Observed growth on IGROV1 ovarian for COc1cc(/C=C/C(=O)c2ccccc2)ccc1Oc1nc(Nc2ccc(F)cc2)nc(N(C)C)n1 , please.
Solution: 48.8

Exercise: Observed growth on IGROV1 ovarian for C(=C\c1cc(/C=C/c2ccccc2)c2ccccc2n1)/c1ccccc1 , please.
Solution: 118

Exercise: Observed growth on IGROV1 ovarian for Clc1cccc(Cl)c1/C=C/c1cc(/C=C/c2ccc(Br)cc2)c2ccccc2n1 , please.
Solution: 96.6

Exercise: Observed growth on IGROV1 ovarian for COc1ccc2[nH]c(O)c(N=NC(=O)Cn3c(-c4ccccc4)nc4cc(C)ccc43)c2c1 , please.
Solution: 51.9

Next:
Exercise: Observed growth on IGROV1 ovarian for CN(C)c1nc(NCCNS(=O)(=O)c2ccc(C3=Nc4c(N)nc(N)nc4NC(c4ccc(C(F)(F)F)cc4)C3)cc2)nc(Nc2ccc(F)cc2)n1 (configuration not stated) , please.
Solution: 35.8

Exercise: Observed growth on IGROV1 ovarian for COc1ccc(C(=O)/C=C/c2c(F)cccc2Cl)cc1S(N)(=O)=O , please.
Solution: 21.6

Exercise: Observed growth on IGROV1 ovarian for COCOc1ccc2c(=O)c(C)c(C(=O)N[C@@H](Cc3ccccc3)C(O)C(=O)NCCc3ccc(OC)cc3)oc2c1 (some centres not stated) , please.
Solution: 122

Exercise: Observed growth on IGROV1 ovarian for CCCCSc1nc(NCCc2c[nH]c3ccccc23)c(C#N)c(-c2ccc(OC)cc2)n1 , please.
Solution: 102

Exercise: Observed growth on IGROV1 ovarian for C=C1CC[C@@H]2[C@]3(C)COC(c4cn(-c5ccccc5)nc4-c4ccccc4)O[C@@H]3CC[C@@]2(C)[C@@H]1C/C=C1/C(=O)OC[C@H]1O (some centres not stated) , please.
Solution: -76.7

Exercise: Observed growth on IGROV1 ovarian for COc1cc(C2CC(c3ccc(S(=O)(=O)NCCNc4nc(Nc5ccc(F)cc5)nc(N(C)C)n4)cc3)=Nc3c(N)nc(N)nc3N2)cc(OC)c1OC (configuration not stated) , please.
Solution: 81.7
